Each record here notes measured selectivity ratio.
- test_details: Selectivity index, ratio of EC50 for cytotoxicity against human MRC5 cells to EC50 for antitrypanosomal activity against Trypanosoma brucei rhodesiense
- Format: toxicity, cell-based
- measurement_conditions: read-out: Ratio EC50
Reply with the value as a number alone.

OC[C@H]1O[C@@H](n2cc(Cl)c3c(OCCOc4ccccc4)ncnc32)[C@H](O)[C@@H]1O : 263

Turning now to a further compound:
Look up selectivity ratio for this compound: CCCOc1ncnc2c1c(Cl)cn2[C@@H]1O[C@H](CO)[C@@H](O)[C@H]1O
37

---

- Tested on: Trypanosoma brucei rhodesiense
- test_details: Antitrypanosomal activity against Trypanosoma brucei rhodesiense assessed as reduction in parasite growth incubated for 3 days by resazurin dye based fluorescence assay
- Format: functional, organism-based
- measurement_conditions: 72 h
measurement_kind: pEC50
Convention used: pEC50 is expressed as -log10 of the molar concentration.

See these solved cases before continuing.
Nc1nc2c(ccn2[C@@H]2O[C@H](CO)[C@@H](O)[C@H]2O)c(=O)[nH]1 : 4.89
CCCCOc1ncnc2c1c(Cl)cn2[C@@H]1O[C@H](CO)[C@@H](O)[C@H]1O : 7.44
COc1ncnc2c1c(I)cn2[C@@H]1O[C@H](CO)[C@@H](O)[C@H]1O : 7.28

Turning now to a further compound:
Look up pEC50 for this compound: OC[C@H]1O[C@@H](n2cc(Cl)c3c(OC4CCCC4)ncnc32)[C@H](O)[C@@H]1O
6.92
